- test name: Pharmacokinetic study in rat plasma after oral administration of Shenyanyihao oral solution (UPLC-MS/MS, noncompartmental)
- Assay type: in vivo, Sprague-Dawley rats
- recorded conditions: rat plasma, oral administration of Shenyanyihao oral solution 10 g/kg/day, n = 6, mean ± SD
Measured AUC0‐t of individual entries
Please reply with the bare figure in ng/ml∗h and do not write the unit itself.

The following compounds have reported results that may help.
compound	AUC0‐t, ng/ml∗h
O=C(/C=C/c1ccc(O)c(O)c1)O[C@H]1[C@H](O[C@@H]2O[C@H](CO)[C@@H](O)[C@H](O)[C@H]2O)[C@@H](O)[C@H](OCCc2ccc(O)c(O)c2)O[C@@H]1CO [Plantamajoside, plantamajoside]	3.99
O=C(O)[C@H]1O[C@@H](Oc2cc3oc(-c4ccccc4)cc(=O)c3c(O)c2O)[C@H](O)[C@@H](O)[C@@H]1O	26525.1

Proceed to the following item.
Recorded AUC0‐t for O=C(/C=C/c1ccc(O)c(O)c1)O[C@@H]1C[C@](O)(C(=O)O)C[C@@H](O)[C@H]1O , please?
17.05

* * *

- test name: Pharmacokinetic study in rat plasma after oral administration of Shenyanyihao oral solution (UPLC-MS/MS, noncompartmental)
- Format: in vivo, Sprague-Dawley rats
- recorded conditions: rat plasma, oral administration of Shenyanyihao oral solution 10 g/kg/day, n = 6, mean ± SD
// boundary case: CL equal to 60 mL/min/kg maps to condition not met; strictly smaller maps to condition met

compound	class
C[N+]1(C)CCC[C@H]1C(=O)[O-] [Stachydrine, stachydrine]	condition met
O=c1c(O[C@@H]2O[C@H](CO)[C@@H](O)[C@H](O)[C@H]2O)c(-c2ccc(O)c(O)c2)oc2cc(O)cc(O)c12	condition met
O=c1cc(-c2ccccc2)oc2cc(O)c(O)c(O)c12	condition not met
O=C(O)[C@H](O)Cc1ccc(O)c(O)c1	condition met
O=C(/C=C/c1ccc(O)c(O)c1)O[C@H]1[C@H](O[C@@H]2O[C@H](CO)[C@@H](O)[C@H](O)[C@H]2O)[C@@H](O)[C@H](OCCc2ccc(O)c(O)c2)O[C@@H]1CO [Plantamajoside, plantamajoside]	condition not met
O=C(/C=C/c1ccc(O)c(O)c1)O[C@@H]1C[C@](O)(C(=O)O)C[C@@H](O)[C@H]1O	condition not met
O=C(O)c1ccc(O)c(O)c1	condition met

Lab note: next compound to report on.
Consider O=C(O)[C@H]1O[C@@H](Oc2cc3oc(-c4ccccc4)cc(=O)c3c(O)c2O)[C@H](O)[C@@H](O)[C@@H]1O . Does its CL lie strictly below 60 mL/min/kg?
condition met

* * *

- test name: Pharmacokinetic study in rat plasma after oral administration of Shenyanyihao oral solution (UPLC-MS/MS, noncompartmental)
- Format: in vivo, Sprague-Dawley rats
- recorded conditions: rat plasma, oral administration of Shenyanyihao oral solution 10 g/kg/day, n = 6, mean ± SD
outcome measure: AUC0‐∞
Show the value, then the unit it is measured in.

compound	AUC0‐∞
O=C(/C=C/c1ccc(O)c(O)c1)O[C@@H]1C[C@](O)(C(=O)O)C[C@@H](O)[C@H]1O	21.95 ± 3.34 ng/ml∗h
O=c1cc(-c2ccccc2)oc2cc(O)c(O)c(O)c12	128.95 ± 53.59 ng/ml∗h
O=C(O)c1ccc(O)c(O)c1	45.80 ± 12.60 ng/ml∗h
C[N+]1(C)CCC[C@H]1C(=O)[O-] [Stachydrine, stachydrine]	40196.0 ± 4088.2 ng/ml∗h
O=C(O)[C@H]1O[C@@H](Oc2cc3oc(-c4ccccc4)cc(=O)c3c(O)c2O)[C@H](O)[C@@H](O)[C@@H]1O	26566.8 ± 15520.4 ng/ml∗h
O=C(/C=C/c1ccc(O)c(O)c1)O[C@H]1[C@H](O[C@@H]2O[C@H](CO)[C@@H](O)[C@H](O)[C@H]2O)[C@@H](O)[C@H](OCCc2ccc(O)c(O)c2)O[C@@H]1CO [Plantamajoside, plantamajoside]	5.01 ± 0.71 ng/ml∗h

Recorded AUC0‐∞ for O=c1c(O[C@@H]2O[C@H](CO)[C@@H](O)[C@H](O)[C@H]2O)c(-c2ccc(O)c(O)c2)oc2cc(O)cc(O)c12 , please?
8.98 ± 1.33 ng/ml∗h

* * *

Measured Tmax of individual entries
- test name: Pharmacokinetic study in rat plasma after oral administration of Shenyanyihao oral solution (UPLC-MS/MS, noncompartmental)
- Assay type: in vivo, Sprague-Dawley rats
- recorded conditions: male, Sprague-Dawley; rat plasma, oral administration of Shenyanyihao oral solution 10 g/kg/day, n = 6, mean ± SD

smiles code	Tmax
O=c1c(O[C@@H]2O[C@H](CO)[C@@H](O)[C@H](O)[C@H]2O)c(-c2ccc(O)c(O)c2)oc2cc(O)cc(O)c12	0.5 h
O=c1cc(-c2ccccc2)oc2cc(O)c(O)c(O)c12	3.6 h
O=C(O)[C@H]1O[C@@H](Oc2cc3oc(-c4ccccc4)cc(=O)c3c(O)c2O)[C@H](O)[C@@H](O)[C@@H]1O	2.8 h

Recorded Tmax for O=C(O)c1ccc(O)c(O)c1 , please?
0.5 h

* * *

- test name: Pharmacokinetic study in rat plasma after oral administration of Shenyanyihao oral solution (UPLC-MS/MS, noncompartmental)
- Format: in vivo, Sprague-Dawley rats
- recorded conditions: rat plasma, oral administration of Shenyanyihao oral solution 10 g/kg/day, n = 6, mean ± SD
Measured AUMC0‐∞ of individual entries
Please reply with the bare figure in ng/ml∗h^2 and do not write the unit itself.

The following compounds have reported results that may help.
smiles code	AUMC0‐∞, ng/ml∗h^2
O=C(/C=C/c1ccc(O)c(O)c1)O[C@@H]1C[C@](O)(C(=O)O)C[C@@H](O)[C@H]1O	338.84
O=C(O)c1ccc(O)c(O)c1	307.02
O=c1cc(-c2ccccc2)oc2cc(O)c(O)c(O)c12	2190.95

Proceed to the following item.
Recorded AUMC0‐∞ for O=C(O)[C@H]1O[C@@H](Oc2cc3oc(-c4ccccc4)cc(=O)c3c(O)c2O)[C@H](O)[C@@H](O)[C@@H]1O , please?
229094.2

* * *

Measured C max of individual entries
- test name: Pharmacokinetic study in rat plasma after oral administration of Shenyanyihao oral solution (UPLC-MS/MS, noncompartmental)
- Assay type: in vivo, Sprague-Dawley rats
- recorded conditions: rat plasma, oral administration of Shenyanyihao oral solution 10 g/kg/day, n = 6, mean ± SD
Please reply with the bare figure in ng/mL and do not write the unit itself.

The following compounds have reported results that may help.
compound	unit name	reported result
C[N+]1(C)CCC[C@H]1C(=O)[O-] [Stachydrine, stachydrine]	ng/mL	2673.0
O=C(O)[C@H]1O[C@@H](Oc2cc3oc(-c4ccccc4)cc(=O)c3c(O)c2O)[C@H](O)[C@@H](O)[C@@H]1O	ng/mL	2983.4
O=C(O)[C@H](O)Cc1ccc(O)c(O)c1	ng/mL	181.79

Proceed to the following item.
Recorded C max for O=C(/C=C/c1ccc(O)c(O)c1)O[C@H]1[C@H](O[C@@H]2O[C@H](CO)[C@@H](O)[C@H](O)[C@H]2O)[C@@H](O)[C@H](OCCc2ccc(O)c(O)c2)O[C@@H]1CO [Plantamajoside, plantamajoside] , please?
1.31

* * *

- test name: Pharmacokinetic study in rat plasma after oral administration of Shenyanyihao oral solution (UPLC-MS/MS, noncompartmental)
- Type: in vivo, Sprague-Dawley rats
- recorded conditions: male, Sprague-Dawley, rat, plasma, po, 10 g/kg/day, rat plasma, oral administration of Shenyanyihao oral solution 10 g/kg/day, n = 6, mean ± SD
Measured Cmax of individual entries
Please reply with the bare figure in ng/mL and do not write the unit itself.

The following molecules have reported results that may help.
molecule	unit name	reported result
O=C(/C=C/c1ccc(O)c(O)c1)O[C@@H]1C[C@](O)(C(=O)O)C[C@@H](O)[C@H]1O [Chlorogenic acid, chlorogenic acid]	ng/mL	3.53
O=c1cc(-c2ccccc2)oc2cc(O)c(O)c(O)c12 [Baicalein, baicalein]	ng/mL	14.2
O=c1c(O[C@@H]2O[C@H](CO)[C@@H](O)[C@H](O)[C@H]2O)c(-c2ccc(O)c(O)c2)oc2cc(O)cc(O)c12 [Isoquercitrin, isoquercitrin]	ng/mL	1.65

Recorded Cmax for O=C(O)c1ccc(O)c(O)c1 [Protocatechuic acid, protocatechuic acid] , please?
26.2

* * *

- test name: Pharmacokinetic study in rat plasma after oral administration of Shenyanyihao oral solution (UPLC-MS/MS, noncompartmental)
- Type: in vivo, Sprague-Dawley rats
- recorded conditions: rat plasma, oral administration of Shenyanyihao oral solution 10 g/kg/day, n = 6, mean ± SD
outcome measure: AUC0‐t (ng/ml∗h)
Please reply with the bare figure in ng/ml∗h and do not write the unit itself.

The following molecules have reported results that may help.
molecule	AUC0‐t, ng/ml∗h
C[N+]1(C)CCC[C@H]1C(=O)[O-] [Stachydrine, stachydrine]	39256.8
O=c1c(O[C@@H]2O[C@H](CO)[C@@H](O)[C@H](O)[C@H]2O)c(-c2ccc(O)c(O)c2)oc2cc(O)cc(O)c12 [Isoquercitrin, isoquercitrin]	4.75
O=c1cc(-c2ccccc2)oc2cc(O)c(O)c(O)c12 [Baicalein, baicalein]	106.77

Proceed to the following item.
Recorded AUC0‐t for O=C(O)c1ccc(O)c(O)c1 [Protocatechuic acid, protocatechuic acid] , please?
41.96
